Hello, the source for this data is PubChem BioAssay (NCATS), in case you need it.

Test: Cell Viability qHTS for small molecule stabilizers of the endoplasmic reticulum resident proteome (AID 1508629);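 note: human SH-SY5Y neuroblastoma cells carrying the GLuc-SERCaMP reporter; compound exposure about 46 h in total before the viability read; % is set by controls: 0 for no effect and ±100 for the full control effect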
Settings: cell viability counter-screen, 100 nM thapsigargin for final 4 h
Inconclusive results are not listed.
measured endpoint: max response (%)

• COc1cc(/C=C(\C#N)C(=O)c2ccc(O)c(O)c2)cc(I)c1O = 17.8
• CCCCCCCCCCCCCCC[C@H](O)[C@H](N)CO = -0.696
• Nc1ccc(-c2ccc3ccccc3n2)cc1 = -7.29
• COc1ccc(CCN(C)CCc2ccc(OC)c(OC)c2)cc1OC = 1.86

----------
Biological target: Atrial natriuretic peptide receptor 2 (Homo sapiens)
Test: Natriuretic polypeptide receptor (hNpr2) antagonism - Pilot subtype selectivity assay (AID 1347050)
Settings: NPR2-expressing cells, cGMP antagonist-mode read-out; series mostly up to 38.3 µM
Results filed as inconclusive are left out. Activity calls are given as the source filed them. The call rests on the fitted dose curve.
Outcomes: 1.0 for active, 0.0 for inactive

* CC(N)=O | 0.0
* N[C@@H](Cc1ccc(O)c(I)c1)C(=O)O | 0.0
* O=c1ccn([C@@H]2O[C@H](COP(=O)(O)OP(=O)(O)O)[C@@H](O)[C@H]2O)c(=O)[nH]1 | 0.0
* NC1(C(=O)O)CC1 | 0.0
* Oc1cc(O)c2c(c1)O[C@H](c1ccc(O)c(O)c1)[C@@H](O)C2 | 0.0
* O=C(O)/C(=C/c1c(C(=O)O)[nH]c2cc(Cl)cc(Cl)c12)c1ccccc1 | 0.0
* CCCCCCCCCCC(C)(C)C(=O)Nc1c(OC)cc(OC)cc1OC | 0.0
* C=C(C)C1CC=C(C(=O)O)CC1 (configuration not stated) | 0.0
* Brc1c(Br)c(Br)c2[nH]cnc2c1Br | 0.0
* CCCOC(=O)c1c(-c2ccccc2)nc(CC)c(C(=O)SCC)c1CCC | 0.0
* NC(N)=N[C@@H](CCC(=O)O)C(=O)O | 0.0
* O=c1oc(Cl)c(Cl)c2ccccc12 | 1.0
* Cc1cccc(C)c1OCC(N)C(C)C (configuration not stated) | 0.0
* N[C@@H](CCCC(=O)O)C(=O)O | 0.0
* COc1cc(N)c(Cl)cc1C(=O)OCCN1CCCCC1 | 0.0
* C=CCN1CCc2c(cc(O)c(O)c2Cl)C(c2ccccc2)C1 (configuration not stated) | 0.0
* Cn1c(=O)c2c(nc(/C=C/c3cccc(Cl)c3)n2C)n(C)c1=O | 0.0
* COc1ccc2c(c1)c(CC(=O)O)c(C)n2C(=O)c1ccccc1 | 0.0
* N=C(N)c1ccccc1 | 0.0
* CCn1c(=O)[nH]c2cc(Cl)c(Cl)cc21 | 0.0
* CCN(CC)CCOC(=O)c1cc(Cl)c(N)cc1OC | 0.0
* NC1CCN(O)C1=O (configuration not stated) | 0.0
* NCCS(=O)O | 0.0
* Cc1cc(Cn2cnc3c2C[C@@H](C(=O)O)N(C(=O)C(c2ccccc2)c2ccccc2)C3)ccc1N | 0.0
* O=c1onc2cnc3ccccc3n12 | 0.0
* Nc1nc2c(nc(Br)n2C2OC3COP(=O)(O)O[C@@H]3C2O)c(=O)[nH]1 (some centres not stated) | 0.0
* NC(Cc1cccc(-c2ccccc2CP(=O)(O)O)c1)C(=O)O (configuration not stated) | 0.0

----------
Target: M-phase phosphoprotein 8 (Homo sapiens)
Test: qHTS Validation Assay for Inhibitors for MPP8 Chromodomain Interactions with Methylated Histone Tails (AID 488949); note: nearly all actives have a fitted effect of over 55% in size
Conditions: AlphaScreen MPP8 binding to H3K9me3 peptide; series mostly up to 57.1 µM
Records with an inconclusive call do not appear. Activity calls are given as the source filed them. The call rests on the fitted dose curve; in most records, active means well fitted inhibition curve with a large enough effect; inconclusive means small, poorly fitted or top-dose-only effect; inactive means no such curve, though single readings can be large or run the other way.
Possible outcomes: Y (active), N (inactive)

• O=c1cc(O)cc(/C=C/c2ccc(O)c(O)c2)o1 = Y
• CN1CCc2cc(Cl)c(O)cc2[C@@H](c2ccccc2)C1 = N
• CC(N)(C(=O)O)c1ccc(C(=O)O)cc1 (stereo unspecified) = N
• C=C(C)C1CC=C(C(=O)O)CC1 (stereo unspecified) = N
• Nc1ccc2c3c(cccc13)C(=O)NC2=O = N
• CC#CCOC(=O)c1c(C)nc2sc3c(c2c1N)CCC(O)C3 (stereo unspecified) = N
• CC(=O)NNC(=O)N1Cc2ccccc2Oc2ccc(Cl)cc21 = N
• O=C(O)c1cccnc1C(=O)O = N
• CC(=O)[C@H]1CCC2C3CC=C4C[C@@H](OS(=O)(=O)O)CC[C@]4(C)C3CC[C@@]21C (stereo partly specified) = N
• O=C(O)C1CCNCC1 = N
• C=CC1(C)CC(=O)C2(O)C(C)(O1)C(OC(C)=O)C(O)C1C(C)(C)CCC(O)C12C (stereo unspecified) = N

----------
Molecular target: Glutaminase kidney isoform, mitochondrial (Homo sapiens) (UniProt O94925)
Sequence (O94925 whole entry, looked up, canonical isoform): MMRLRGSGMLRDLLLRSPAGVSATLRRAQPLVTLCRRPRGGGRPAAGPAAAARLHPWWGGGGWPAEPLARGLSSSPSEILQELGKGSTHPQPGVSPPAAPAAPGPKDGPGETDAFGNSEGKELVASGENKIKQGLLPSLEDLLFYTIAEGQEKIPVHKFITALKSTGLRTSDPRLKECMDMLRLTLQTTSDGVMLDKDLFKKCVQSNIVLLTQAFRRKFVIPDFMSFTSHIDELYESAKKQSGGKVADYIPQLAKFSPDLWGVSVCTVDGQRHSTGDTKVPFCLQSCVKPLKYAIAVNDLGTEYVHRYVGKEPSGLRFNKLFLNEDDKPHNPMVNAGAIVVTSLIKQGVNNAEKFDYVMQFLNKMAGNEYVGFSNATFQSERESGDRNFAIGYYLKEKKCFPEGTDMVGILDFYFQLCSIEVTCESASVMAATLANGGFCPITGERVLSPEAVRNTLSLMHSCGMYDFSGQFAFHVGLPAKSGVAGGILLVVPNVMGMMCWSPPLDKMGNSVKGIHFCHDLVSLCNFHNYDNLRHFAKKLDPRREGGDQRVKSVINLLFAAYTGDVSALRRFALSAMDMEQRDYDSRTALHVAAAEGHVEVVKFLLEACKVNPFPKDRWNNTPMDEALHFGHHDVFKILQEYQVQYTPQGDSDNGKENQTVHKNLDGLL
Experiment: qHTS for Inhibitors of Glutaminase (GLS): LOPAC Validation (AID 624146); note: nearly all actives have a fitted effect of over 60% in size; note: potency is the fitted concentration of half-maximal effect
Conditions: glutaminase enzyme activity inhibition; series mostly up to 46.1 µM
Results filed as inconclusive are left out. Active and inactive are the calls of the source. Calls come from the whole dose curve; as a rule, active = well fitted inhibition curve with a large enough effect; inconclusive = small, poorly fitted or top-dose-only effect; inactive = no such curve, though single readings can be large or run the other way.
measured endpoint: Potency

* Cn1c(=O)c2c(nc(/C=C/c3cccc(Cl)c3)n2C)n(C)c1=O | inactive
* COc1ccc(-c2ccc(N)[n+](CCCC(=O)O)n2)cc1 | inactive
* CC(=O)O[C@H]1Cc2ccccc2N(C(N)=O)c2ccccc21 | inactive
* CN[C@H](CC(=O)O)C(=O)O | inactive
* Cc1cc2c(cc1Cl)N(C(=O)Nc1ccnc3ccccc13)CC2 | 7.08 µM (active)
* COc1ccc(C(=O)NCc2cccnc2)cc1C(=O)NCc1cccnc1 | inactive
* NOCC(=O)O | inactive
* O=C(O)/C=C/c1ccc(O)c(O)c1 | 2 µM (active)
* N=C(N)c1ccc(OCCCCCOc2ccc(C(=N)N)cc2)cc1 (tested in a mixture with another compound) | inactive
* CCCCCC[C@@H]([C@@H](C)O)n1cnc2c(N)ncnc21 | inactive
* CC1C(=O)N(C)C(=O)c2nc[nH]c21 (stereo not given) | inactive
* COc1ccccc1N1CCN(CCCCN2C(=O)c3ccccc3C2=O)CC1 | inactive
* NC(=Nc1ccccc1)NC(=O)c1nc(Cl)c(N)nc1N | inactive
* CN(C)C(=O)/N=N/C(=O)N(C)C | inactive
* NC(N)=[N+]1CCc2ccccc2C1 | inactive
* CC(C)C[C@H](NC(=O)[C@H](O)[C@H](N)Cc1ccccc1)C(=O)O | inactive
* O=C(O)[C@H]1NCCC[C@H]1C(=O)O | inactive
* Nc1ccc(-c2nc3ccc(-c4nc5ccc(N)cc5[nH]4)cc3[nH]2)cc1 | 5.01 µM (active)
* CN(C)S(=O)(=O)c1ccc2c(c1)/C(=C/c1cc3c([nH]1)CCCC3)C(=O)N2 | inactive
* Cc1ccc([N+](=O)[O-])cc1S(=O)(=O)N(C)C | inactive
* C=CCNc1ncnc2ccc(Br)cc12 | inactive
* COc1ccccc1N1CCN(CCCNc2c(C)c(=O)n(C)c(=O)n2C)CC1 | inactive
* CC(N)=NCCCC[C@@H](N)C(=O)O | inactive
* CC(=O)C(C)=O | inactive
* O=C(O)C1CCNCC1 | inactive

----------
Biological target: D(1A) dopamine receptor (Homo sapiens)
Assay: HTS Assay for Allosteric Agonists of the Human D1 Dopamine Receptor: Primary Screen for Antagonists (AID 488983);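 note: calcium flux response to an EC80 dopamine challenge measured with no-wash dye; nearly all actives have a fitted effect of over 65% in size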
Settings: D1 receptor cell assay, antagonist mode, qHTS titration; series mostly up to 41.8 µM
Inconclusive results are not listed. Active and inactive are the calls of the source. The call rests on the fitted dose curve; in most records, active means well fitted inhibition curve with a large enough effect; inconclusive means small, poorly fitted or top-dose-only effect, or effect the other way; inactive means flat fitted curve, though single readings scatter.
Outcome codes: Yes for active, No for inactive

• C/C(=C\c1ccc(C(=O)O)cc1)c1ccc2c(c1)C(C)(C)CCC2(C)C = No
• Cc1nc2n(c(=O)c1CCN1CCC(c3noc4cc(F)ccc34)CC1)CCCC2O (stereo unspecified) = Yes
• N#CC(=C(\N)Sc1ccccc1N)/C(C#N)=C(/N)Sc1ccccc1N = No
• OC[C@H]1O[C@H](n2cnc3c(N[C@H]4CCC[C@@H]4O)ncnc32)[C@H](O)[C@@H]1O = No
• Cn1c(=O)c2[nH]c(-c3ccc(S(=O)(=O)O)cc3)nc2n(C)c1=O = No
• COc1cc(/C=C(\C#N)C(=O)c2ccc(O)c(O)c2)cc(I)c1O = No
• COc1cc(C(O)CO)ccc1O (stereo unspecified) = No
• CCCn1c(=O)c2[nH]c(-c3ccc(S(=O)(=O)O)cc3)nc2n(CCC)c1=O = No
• COC1(C2=NCCN2)COc2ccccc2O1 (stereo unspecified) = No
• COc1cccc(OC)c1OCCNCC1CSc2ccccc2O1 (stereo unspecified) = Yes
• N[C@H](C(=O)O)[C@H](O)C(=O)O = No

----------
Molecular target: Ubiquitin carboxyl-terminal hydrolase 1 (Homo sapiens) (UniProt O94782)
Sequence (O94782 whole entry, looked up): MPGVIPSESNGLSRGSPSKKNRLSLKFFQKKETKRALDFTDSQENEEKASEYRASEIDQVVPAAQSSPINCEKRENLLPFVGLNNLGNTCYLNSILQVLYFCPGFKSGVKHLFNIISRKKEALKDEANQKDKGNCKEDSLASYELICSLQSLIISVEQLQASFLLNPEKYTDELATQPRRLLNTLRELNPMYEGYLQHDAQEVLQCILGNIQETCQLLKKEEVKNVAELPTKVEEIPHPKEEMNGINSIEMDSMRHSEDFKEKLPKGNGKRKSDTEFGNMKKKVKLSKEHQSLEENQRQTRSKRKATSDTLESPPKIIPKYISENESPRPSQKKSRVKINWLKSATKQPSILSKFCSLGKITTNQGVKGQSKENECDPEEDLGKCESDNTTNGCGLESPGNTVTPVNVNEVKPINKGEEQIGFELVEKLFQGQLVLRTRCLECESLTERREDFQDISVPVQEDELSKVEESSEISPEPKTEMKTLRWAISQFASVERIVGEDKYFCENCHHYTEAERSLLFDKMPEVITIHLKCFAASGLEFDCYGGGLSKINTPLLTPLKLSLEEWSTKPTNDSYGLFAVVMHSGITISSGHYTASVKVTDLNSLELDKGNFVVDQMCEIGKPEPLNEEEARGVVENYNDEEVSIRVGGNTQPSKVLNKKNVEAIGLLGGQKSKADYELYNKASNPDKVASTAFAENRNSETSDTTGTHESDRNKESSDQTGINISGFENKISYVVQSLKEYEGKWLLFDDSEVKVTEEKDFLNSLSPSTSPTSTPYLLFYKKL
Test: Inhibitors of USP1/UAF1: Pilot qHTS (AID 504865); note: nearly all actives have a fitted effect of over 35% in size
Details: purified USP1/UAF1, Ub-rhodamine cleavage fluorescence; series mostly up to 114 µM
Source text: Deubiquitinating enzymes (DUBs) are a class of enzymes that can cleave isopeptide bond formed between the C-terminal carboxylate of ubiquitin and a lysine side-chain amino group on the target protein. Among them, ubiquitin specific proteases (USPs) constitute the largest DUB family. […]
Results filed as inconclusive are left out. Active and inactive are the calls of the source. Calls come from the whole dose curve; as a rule, active = well fitted inhibition curve with a large enough effect; inconclusive = small, poorly fitted or top-dose-only effect; inactive = flat fitted curve, though single readings scatter. Residues, ends and D or L forms follow the SMILES beside them. *: point of attachment. Cbz = O=C(OCc1ccccc1)*
Classes used: yes for active, no for inactive

* c1ccc(CN2CCC3(CCCc4ccccc43)CC2)cc1 | no
* CC(=O)O[C@H]1CC2(C)[C@@H](C[C@@H](O)[C@H]3[C@@]4(C)CC[C@@H](O)[C@@H](C)[C@@H]4CC[C@@]32C)C1=C(CCC=C(C)C)C(=O)O (some centres undefined) | no
* CNCCNS(=O)(=O)c1cccc2cnccc12 | no
* CC(=O)NNC(=O)N1Cc2ccccc2Oc2ccc(Cl)cc21 | no
* CCN(CC)CCCCCCCCOC(=O)c1cc(OC)c(OC)c(OC)c1 | no
* O=C(O)C1=CCCNC1 | no
* Clc1nccc2c1ccc1ccccc12 | no
* CCCCCCCCCC(=O)NC(CN1CCOCC1)[C@H](O)c1ccccc1 (some centres undefined) | no
* Cn1c(=O)[nH]c2ncn(C)c2c1=O | no
* CC(C)(C)NCC(O)COc1cccc2[nH]c(=O)[nH]c12 (centres undefined) | no
* C[C@H](O)C(=O)C1=Nc2c(nc(N)[nH]c2=O)NC1 | yes
* CC[n+]1c(/C=C/C=C2/N(C)c3ccccc3C2(C)C)sc2ccccc21 | yes
* O=c1onc2cnc3ccccc3n12 | no
* O=C1Cc2c([nH]c3ccc(Br)cc23)-c2ccccc2N1 | no
* CC(C)[C@H](NC(=O)OCc1ccccc1)C(=O)N[C@H](C=O)Cc1ccccc1 (Cbz-Val-Phe-aldehyde) | no
* O=C(O)C1CCNCC1 | no
* CC(N)=NCCCC[C@@H](N)C(=O)O | no
* COc1ccccc1N1CCN(CCN(C(=O)c2ccc(F)cc2)c2ccccn2)CC1 | no
* CC(=O)SC1CC2=CC(=O)CC[C@]2(C)C2CC[C@@]3(C)C(CC[C@@]34CCC(=O)O4)C12 (some centres undefined) | no
* O=C(O)C1CCCNC1 (centres undefined) | no
* CCCCCC(O)CCCC(=O)O (centres undefined) | no
* C=CC1(C)CC(=O)C2(O)C(C)(O1)C(OC(C)=O)C(O)C1C(C)(C)CCC(O)C12C (centres undefined) | no
* CC1CNCCN1S(=O)(=O)c1cccc2cnccc12 (centres undefined) | no
* Oc1cc2c(cc1O)C(c1ccccc1)CNCC2 (centres undefined) | no
